Target Entity: T1, full-length human SIRPαV1 DD→EN on Expi-CHO cells (human, UniProt P78324 31-504)
T1 construct: the entry already carries the change (PDDV to PENV)
T1 sequence (P78324 31-504 D130E/D131N): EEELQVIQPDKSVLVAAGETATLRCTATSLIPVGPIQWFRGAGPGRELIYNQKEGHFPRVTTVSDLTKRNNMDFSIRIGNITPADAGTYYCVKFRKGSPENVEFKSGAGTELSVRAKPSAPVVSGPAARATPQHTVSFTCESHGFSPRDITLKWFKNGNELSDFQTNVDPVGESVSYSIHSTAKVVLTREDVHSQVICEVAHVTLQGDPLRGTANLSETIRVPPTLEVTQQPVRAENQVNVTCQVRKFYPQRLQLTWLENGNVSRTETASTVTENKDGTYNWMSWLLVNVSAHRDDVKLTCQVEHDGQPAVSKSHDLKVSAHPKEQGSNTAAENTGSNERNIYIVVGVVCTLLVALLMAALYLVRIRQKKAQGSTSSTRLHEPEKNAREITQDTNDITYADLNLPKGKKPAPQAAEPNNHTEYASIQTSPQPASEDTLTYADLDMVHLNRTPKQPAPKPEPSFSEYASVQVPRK
Assay Overview: flow cytometry, Expi-CHO cells
Property Label: EC50 (nM)
Value expressed in nM; do not type the unit.

**Q:** Specify reported EC50 for the binder shown: Antibody E22 (antibody, human IgG1, kappa, L234A L235A, V domains shown) VH: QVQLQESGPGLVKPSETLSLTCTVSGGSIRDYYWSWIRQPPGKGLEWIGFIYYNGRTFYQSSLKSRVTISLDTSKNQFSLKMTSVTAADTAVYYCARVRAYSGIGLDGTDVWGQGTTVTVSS VL: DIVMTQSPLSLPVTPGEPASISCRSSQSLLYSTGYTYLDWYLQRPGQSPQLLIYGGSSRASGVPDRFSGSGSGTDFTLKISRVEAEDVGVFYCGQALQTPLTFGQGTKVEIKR
**A:** 0.6

**Q:** Specify reported EC50 for the binder shown: Anti-SIRPα antibody KWAR23 (antibody, V domains shown) VH: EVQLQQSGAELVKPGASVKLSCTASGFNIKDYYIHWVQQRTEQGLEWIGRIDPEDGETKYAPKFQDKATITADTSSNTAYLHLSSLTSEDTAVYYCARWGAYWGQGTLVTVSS VL: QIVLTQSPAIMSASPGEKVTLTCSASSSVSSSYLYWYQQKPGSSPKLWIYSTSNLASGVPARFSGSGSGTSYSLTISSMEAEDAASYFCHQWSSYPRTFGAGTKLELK
**A:** 0.2

**Q:** Specify reported EC50 for the binder shown: Antibody D (antibody, human IgG1, kappa, L234A L235A, V domains shown) VH: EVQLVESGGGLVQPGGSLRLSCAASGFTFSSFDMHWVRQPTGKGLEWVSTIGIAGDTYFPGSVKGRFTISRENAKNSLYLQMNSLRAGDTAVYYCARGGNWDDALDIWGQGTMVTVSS VL: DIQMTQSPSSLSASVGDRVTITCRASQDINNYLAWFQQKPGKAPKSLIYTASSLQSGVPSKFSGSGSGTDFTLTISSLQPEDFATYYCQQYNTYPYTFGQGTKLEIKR
**A:** 6.6

**Q:** Specify reported EC50 for the binder shown: Antibody C (antibody, human IgG1, kappa, L234A L235A, V domains shown) VH: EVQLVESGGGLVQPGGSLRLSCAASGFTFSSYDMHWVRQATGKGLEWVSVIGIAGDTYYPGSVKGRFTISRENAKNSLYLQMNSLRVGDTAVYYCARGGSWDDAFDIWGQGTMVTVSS VL: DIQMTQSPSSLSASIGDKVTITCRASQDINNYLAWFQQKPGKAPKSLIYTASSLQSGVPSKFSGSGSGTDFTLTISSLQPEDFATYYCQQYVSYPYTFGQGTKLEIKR
**A:** 1.1
